These data points were gathered from ChEMBL document CHEMBL1201862.

Form: system (HCT-15), quantity (GI50), values below.
metric name: GI50

{"columns": ["molecule", "result"],
 "data": [
  ["COC(=O)C1=CCC2c3[nH]c4ccccc4c3CCN2C1 (centres undefined)", "> 354 µM"],
  ["Cc1cc(Cl)ccc1NC(=O)C(=O)Cc1ccc([N+](=O)[O-])c([N+](=O)[O-])c1CC(=O)C(=O)Nc1ccc(Cl)cc1C", "> 100 µM"],
  ["COC(=O)CN1Cc2cc(C)cc(c2O)CN(CC(=O)OC)Cc2cc(C)cc(c2O)CN(CC(=O)OC)Cc2cc(C)cc(c2O)C1", "> 66.4 µM"],
  ["CC(=O)OCC1OC(OCCCCCCO)C(OC(C)=O)C(OC(C)=O)C1OC(C)=O (centres undefined)", "> 100 µM"]
]}
